# Experimental Details: Cytotoxicity against vincristine-resistant human KBVIN cells after 3 days by SRB assay
# Format: functional, cell-based
# Cond: 72 h
Reported IC50 values follow for various compounds
Provide only the numeric value, understood in µM.

Known IC50 results, listed for orientation:
| Compound | IC50 [µM] |
| --- | --- |
| C=C(C)C1CC2=C(O1)C(=O)c1ccccc1C2=O (stereo not drawn) [DEHYDROISO-ALPHA-LAPACHONE] | 5.7 |
| C=C(C)C1CC2=C(O1)c1ccccc1C(=O)C2=O (stereo unspecified) | 3.9 |
| C=C(C)C1CC2=C(O1)c1ccc(O)cc1C(=O)C2=O (stereo unspecified) [LANTALUCRATIN C] | 6.3 |
| C=C(C)C1CC2=C(O1)c1cccc(O)c1C(=O)C2=O (stereo unspecified) [LANTALUCRATIN B] | 2.4 |

Request: Please give the measured IC50 for this compound: CC1(C)CCC2=C(O1)c1ccccc1C(=O)C2=O [LAPACHONE]
Result: 2.2

---

# Test system: HOS
# Experimental Details: Cytotoxicity against human HOS cells after 3 days by SRB assay
# Format: functional, cell-based
# Cond: 72 h
Reported IC50 values follow for various compounds
Provide only the numeric value, understood in µM.

Known IC50 results, listed for orientation:
| Compound | Assay Target | IC50 (µM) |
| --- | --- | --- |
| C=C(C)C1CC2=C(O1)c1cccc(OC)c1C(=O)C2=O (configuration not stated) | HOS | 4.8 |
| C=C(C)C1CC2=C(O1)C(=O)c1ccccc1C2=O (stereo not drawn) [DEHYDROISO-ALPHA-LAPACHONE] | HOS | 3.6 |
| C=C(C)C1CC2=C(O1)c1ccccc1C(=O)C2=O (configuration not stated) | HOS | 4 |
| C=C(C)C(O)CC1=C(OC)C(=O)c2c(OC)ccc(O)c2C1=O (configuration not stated) | HOS | 8.7 |
| CC1(C)CCC2=C(O1)c1ccccc1C(=O)C2=O | HOS | 1.4 |

Request: # returns recorded IC50 (system: HOS) for C=C(C)C1CC2=C(O1)c1ccc(O)cc1C(=O)C2=O (configuration not stated)
Result: 4.7

Request: # returns recorded IC50 (system: HOS) for C=C(C)C1CC2=C(O1)c1cccc(O)c1C(=O)C2=O (configuration not stated)
Result: 2.5

---

# System: A549
# Experimental Details: Cytotoxicity against human A549 cells after 3 days by SRB assay
# Type: functional, cell-based
# Cond: A549, 72 h
Measurement Kind: pIC50
Remember the convention: pIC50 equals -log10 of concentration in molar.

Known pIC50 results, listed for orientation:
| Compound | Assay Target | Observed Value |
| --- | --- | --- |
| C=C(C)C1CC2=C(O1)c1cccc(OC)c1C(=O)C2=O (stereo not drawn) | A549 | 5.48 |
| C=C(C)C1CC2=C(O1)C(=O)c1ccccc1C2=O (stereo not drawn) [DEHYDROISO-ALPHA-LAPACHONE] | A549 | 5.19 |
| C=C(C)C1CC2=C(O1)c1cccc(O)c1C(=O)C2=O (stereo not drawn) | A549 | 5.74 |
| C=C(C)C(O)CC1=C(OC)C(=O)c2c(OC)ccc(O)c2C1=O (stereo not drawn) | A549 | 5.06 |
| C=C(C)C1CC2=C(O1)c1ccccc1C(=O)C2=O (stereo not drawn) | A549 | 5.57 |

Request: Please give the measured pIC50 for this compound: C=C(C)C1CC2=C(O1)c1ccc(O)cc1C(=O)C2=O (stereo not drawn)
Result: 5.22

Request: Please give the measured pIC50 for this compound: CC1(C)CCC2=C(O1)c1ccccc1C(=O)C2=O
Result: 5.82
